Here, each record is paired with measured pIC50 data.
test system: Plasmodium falciparum 3D7; construct: 3D7; assay: microbe, parasite or virus in culture; design: species or system P. falciparum blood stage culture; whole-cell asexual blood stage P. falciparum growth inhibition; conditions: Avery assay, read-out: 3D7 / IC50nM
pIC50: −log10 of the molar value.
observation type: pIC50

{"columns": ["compound", "observation type", "test value"],
 "data": [
  ["CCN(CC)CCCC(C)Nc1ccnc2cc(Cl)ccc12 (stereo not drawn) [Chloroquine]", "pIC50", 7.73],
  ["C[C@@H]1CC[C@H]2[C@@H](C)C(=O)O[C@@H]3O[C@@]4(C)CC[C@@H]1[C@]32OO4 [Artemisinin]", "pIC50", 8.22],
  ["COc1ccc2nc3cc(Cl)ccc3c(Nc3cc(CN4CCCC4)c(O)c(CN4CCCC4)c3)c2n1 [Pyronaridine]", "pIC50", 7.82],
  ["CCc1nc(N)nc(N)c1-c1ccc(Cl)cc1 [Pyrimethamine]", "pIC50", 7.96],
  ["CN(Cc1cnc2nc(N)nc(N)c2n1)c1ccc(C(=O)N[C@@H](CCC(=O)O)C(=O)O)cc1 [Methotrexate]", "pIC50", 7.59],
  ["COc1cc(C)c2c(Oc3cccc(C(F)(F)F)c3)c(OC)cc(NC(C)CCCN)c2n1 (stereo not drawn) [Tafenoquine]", "pIC50", 6.35]
]}

====

Assay: in vitro
Design: metabolic stability in human liver microsomes, LC-MS, NADPH, 0.4 mg/mL protein
Details: liver microsomes; human liver microsomes; read-out: t1/2 HLM (Monash)
Experimental: The two original GSK hits (OSM-S-5 and -6) and six NN compounds were evaluated for their kinetic solubility in phosphate buffer and their metabolic stability in human liver microsomes (Table SB5, Data Sets S20 and S21).

{"columns": ["structure string", "unit spec", "half-life"],
 "data": [
  ["COc1ccc(-n2c(C)cc(/C=C3\\SC(=Nc4ccccc4)NC3=O)c2C)cc1", "h", 3.45],
  ["Cc1cc(/C=C2\\S/C(=N\\c3ccccc3)NC2=O)c(C)n1-c1ccc(F)cc1", "h", 1.72],
  ["Cc1ccc(-n2c(C)cc(/C=C3\\SC(=Nc4ccccc4)NC3=O)c2C)cc1", "h", 4.08]
]}

====

experiment: in vitro; set-up: plasma stability, half-life and per cent remaining; details: plasma; plasma Mouse; read-out: t1/2 plasma Mouse
observation type: half-life (min)

{"columns": ["structure string", "observation type", "unit spec", "test value"],
 "data": [
  ["Cc1cc(C(=O)OCC(N)=O)c(C)n1-c1ccc(F)cc1", "half-life", "min", 114]
]}

====

Experiment: in vitro
Set-up: metabolic stability in human liver microsomes, LC-MS, NADPH, 0.4 mg/mL protein
Conditions: liver microsomes; human liver microsomes; read-out: 0.4 / CLint, in vitro / (mL/min/mg protein)
Method: The two original GSK hits (OSM-S-5 and -6) and six NN compounds were evaluated for their kinetic solubility in phosphate buffer and their metabolic stability in human liver microsomes (Table SB5, Data Sets S20 and S21).
observation type: microsomal CLint

{"columns": ["structure string", "observation type", "test value"],
 "data": [
  ["Nc1ncnc2cc(-c3cccc(S(N)(=O)=O)c3)sc12", "microsomal CLint", "< 0.007 mL/min/mg"]
]}

====

test system: Plasmodium berghei Pb Liver Stage; test: microbe, parasite or virus in culture; parameters: P. berghei sporozoite liver stage development inhibition, IC50; details: HepG2
observation type: IC50 (nM)

{"columns": ["structure string", "observation type", "unit spec", "test value"],
 "data": [
  ["COc1ccc(-n2c(C)cc(/C=C3\\SC(=Nc4ccccc4)NC3=O)c2C)cc1", "IC50", "nM", 345]
]}

Reference source: paper PMC5084075
